# experimental_protocol: partition coefficient
# Type: physicochemical
result_type: logP

INPUT: What does the record list as logP for CN(CC(=O)OCc1ccccc1)C(=N)N ?
OUTPUT: -0.975

INPUT: Dear colleague, I am looking for the recorded logP of the following compound: CCOC(=O)CN(C)C(=N)N
OUTPUT: -1.13

----------
# experimental_protocol: aqueous solubility (concentration at saturation)
# Assay type: physicochemical
# condition: water, read-out: Conc. at Saturation
result_type: solubility (mg/mL)

A. CCOC(=O)CN(C)C(=N)N
B. CN(CC(=O)OCc1ccccc1)C(=N)N
INPUT: Could you point out whether the larger solubility belongs to A or to B ? # answer = label of selected item
OUTPUT: A
(A: 206 mg/mL, B: 89.3 mg/mL)

----------
# experimental_protocol: partition coefficient
# Type: physicochemical
# condition: studies in the laboratory
result_type: logP
Quick one: just the number, no unit, thanks!

INPUT: // logP lookup, key: CN(CC(=O)O)C(=N)N.O [creatine monohydrate, reference compound]
OUTPUT: -1.82
